The reported measurements were obtained from patent US20240343803A1.

EC50 reference
- target_under_test: T1, Fusion protein of extracellular domain of human TIGIT and mouse IgG2a Fc fragment (human TIGIT ECD-mFc) (human)
- T1 construct: The entry includes the signal peptide (limits not recoverable) and the mouse IgG2a Fc
- T1 chain: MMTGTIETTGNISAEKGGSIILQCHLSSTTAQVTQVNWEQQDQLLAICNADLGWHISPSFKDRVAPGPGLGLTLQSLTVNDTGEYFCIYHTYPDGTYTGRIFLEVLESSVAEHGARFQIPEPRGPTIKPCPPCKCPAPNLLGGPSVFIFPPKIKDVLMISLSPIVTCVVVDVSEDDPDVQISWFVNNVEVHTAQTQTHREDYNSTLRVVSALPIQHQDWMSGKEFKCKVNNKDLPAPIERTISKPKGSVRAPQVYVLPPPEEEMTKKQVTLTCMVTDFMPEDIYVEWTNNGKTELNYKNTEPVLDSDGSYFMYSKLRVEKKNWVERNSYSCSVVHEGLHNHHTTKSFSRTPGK
- measurement_description: ELISA, human TIGIT ECD-mFc
readout_label: EC50 (nM)

binder	readout_label	unit_descriptor	test_value
TIGIT-006-H1L3 (antibody, V domains shown, Humanized anti-TIGIT antibody) VH: EVQLQESGPGLVKPSETLSLTCAVSGYSITSDYWNWIRQPPGKGLEWIGYISYSGRTYYNPSLKSRVTISRDTSKNQFSLKLSSVTAADTAVYYCARGDYSNYGGAMYDWGQGTTVTVSS VL: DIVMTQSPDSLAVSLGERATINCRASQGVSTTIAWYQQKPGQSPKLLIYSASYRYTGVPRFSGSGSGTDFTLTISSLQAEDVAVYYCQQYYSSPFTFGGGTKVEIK	EC50	nM	0.0185
TIGIT-006-H2L3 (antibody, V domains shown, Humanized anti-TIGIT antibody) VH: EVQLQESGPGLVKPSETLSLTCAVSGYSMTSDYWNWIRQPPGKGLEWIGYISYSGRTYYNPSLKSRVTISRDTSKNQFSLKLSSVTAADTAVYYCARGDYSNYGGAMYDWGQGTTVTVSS VL: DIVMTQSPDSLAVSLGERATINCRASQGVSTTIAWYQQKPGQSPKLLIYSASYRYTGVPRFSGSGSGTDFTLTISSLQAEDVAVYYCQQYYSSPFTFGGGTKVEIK	EC50	nM	0.0103
TIGIT-070-H3L3 (antibody, V domains shown, Humanized anti-TIGIT antibody) VH: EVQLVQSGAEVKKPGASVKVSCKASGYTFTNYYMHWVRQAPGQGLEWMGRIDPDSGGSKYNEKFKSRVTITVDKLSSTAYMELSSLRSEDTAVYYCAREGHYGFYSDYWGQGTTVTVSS VL: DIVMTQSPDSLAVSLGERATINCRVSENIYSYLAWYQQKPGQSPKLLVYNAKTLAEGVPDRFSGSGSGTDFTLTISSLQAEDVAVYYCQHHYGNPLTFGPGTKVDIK	EC50	nM	0.0151
